B1: Pistol ribozyme (parent)
chain: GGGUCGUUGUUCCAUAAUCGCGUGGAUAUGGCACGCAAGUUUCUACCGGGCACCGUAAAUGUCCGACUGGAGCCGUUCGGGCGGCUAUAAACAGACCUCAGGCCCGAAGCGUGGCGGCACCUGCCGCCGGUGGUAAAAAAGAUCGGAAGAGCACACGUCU

Variants of: B1
test_description: aptazyme ON/OFF ratio, guanine; higher = stronger switching; co-transcriptional cleavage with and without guanine
metric: aptazyme ON/OFF ratio
Write no unit; give the number alone.

Req: For the variant U7G G9U U10A U11C C12A , what aptazyme ON/OFF ratio is on record?
Resp: 1.56

Req: For the variant U8G G9C U10G U11C C12U , what aptazyme ON/OFF ratio is on record?
Resp: 1.03

Req: For the variant U7G U8C G9U U10A C12G , what aptazyme ON/OFF ratio is on record?
Resp: 1.77

Req: For the variant U7C U8C G9A U10G U11A C12A C13G , what aptazyme ON/OFF ratio is on record?
Resp: 1.2

Req: For the variant U7A U8A G9U U10G U11A C12A C13U , what aptazyme ON/OFF ratio is on record?
Resp: 1.16

Req: For the variant U7C U8A G9U U10A U11A C12A C13U , what aptazyme ON/OFF ratio is on record?
Resp: 1.19
